The following binders are shown together with reported Ka values.
Target: T1, recombinant OX40 protein with a His tag (Cat: 10481-H08H, Sino Biological) (UniProt P43489 29-216)
T1 construct: Bought protein; also called OX40-His (bought); not shown: His tag
T1 sequence (looked up): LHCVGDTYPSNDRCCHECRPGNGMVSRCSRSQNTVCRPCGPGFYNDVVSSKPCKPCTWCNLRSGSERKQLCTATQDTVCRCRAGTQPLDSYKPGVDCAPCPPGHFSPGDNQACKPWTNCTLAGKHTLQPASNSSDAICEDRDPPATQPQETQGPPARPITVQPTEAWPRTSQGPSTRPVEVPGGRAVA
Assay: SPR, BIAcore T-200; antibody captured by anti-human IgG, OX40-His flowed; Test 2

BINDER	Ka
445-3 (antibody, V domains shown) VH: QVQLVQSGAEVKKPGSSVKVSCKASGYKFTSYIIHWVRQAPGQGLEWMGYINPYNEGTRYNQKFQGRVTLTADKSTSTAYMELSSLRSEDTAVYYCARGYYGSSYAMDYWGQGTTVTVSS VL: DIQMTQSPSSLSASVGDRVTITCRASQGISNYLNWYQQKPDGAIKLLIYDASTLYSGVPSRFSGSGSGTDFTLTISSLQPEDFATYYCQQYSKLPYTFGGGTKVEIK	1.03e+08 M⁻¹
445-2 (antibody, V domains shown) VH: QVQLVQSGAEVKKPGSSVKVSCKASGYKFTSYIIHWVRQAPGQGLEWMGYINPYNEGTRYAQKFQGRVTLTADKSTSTAYMELSSLRSEDTAVYYCARGYYGSSYAMDYWGQGTTVTVSS VL: DIQMTQSPSSLSASVGDRVTITCSASQGISNYLNWYQQKPGKAIKLLIYDASTLYSGVPSRFSGSGSGTDFTLTISSLQPEDFATYYCQQYSKLPYTFGGGTKVEIK	7.8e+07 M⁻¹
445-1 (antibody, V domains shown) VH: QVQLVQSGAEVKKPGSSVKVSCKASGYKFTSYIIHWVRQAPGQGLEWMGYINPYNDGTRYNQKFQGRVTLTSDKSTSTAYMELSSLRSEDTAVYYCARGYYGSSYAMDYWGQGTTVTVSS VL: DIQMTQSPSSLSASVGDRVTITCSASQGISNYLNWYQQKPGKAIKLLIYDTSTLYSGVPSRFSGSGSGTDYTLTISSLQPEDFATYYCQQYSKLPYTFGGGTKVEIK	6.1e+07 M⁻¹
ch445 (antibody, V domains shown, also called Mu445 variable domains fused to human IgG1wt/kappa constant regions) VH: EVQLQQSGPELVKPGASVKMSCKASGYKFTSYIIHWVKQKPGQGLEWIGYINPYNDGTRYNEKFKGKATLTSDKSSSTAYMEYSSLTSEDSAVYYCARGYYGSSYAMDYWGQGTSVTVSS VL: DIQMTQTTSSLSASLGDRVTISCSASQGISNYLNWYQQKPDGTIKLLIYDTSTLYSGVPSRFSGSGSGTDYFLTISNLEPEDIATYYCQQYSKLPYTFGGGTKLEKK	1.59e+08 M⁻¹
